test system: Human papillomavirus type 1a protein E7 (residues 44-93); test: small molecules binding HPV E7 44-93 – biochemical, small-molecule microarray, residues 44-93, 635 nm fluorescence, primary screen (AID 1108); conditions: fluorescence 635 nm, higher = more signal;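 note: E7 fragment applied at 1 µg/mL in TBST for 1 h at 4 C; score combines spot fluorescence with its signal to noise ratio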

smiles.structure	tgt	composite z-score
O=C1O[C@H](c2ccccc2)[C@H](c2ccccc2)N2[C@H]1[C@@H](C(=O)N1CCN(c3ncccn3)CC1)[C@]1(C(=O)Nc3ccc(C#CCCO)cc31)[C@H]2c1ccc(OCCO)cc1	Human papillomavirus type 1a protein E7 (residues 44-93)	1.41
COc1ccc([Si](C)(C)[C@H]2[C@H](CC(=O)N3CCC[C@H]3CO)O[C@@]3(C(=O)N(Cc4ccc(N5C(=O)c6cccc7cccc5c67)cc4)c4ccccc43)[C@@H]2C)cc1	Human papillomavirus type 1a protein E7 (residues 44-93)	1.14
COCCCNC(=O)[C@@]1(Cc2ccccc2CN=[N+]=[N-])N=C(c2ccc(OCCCO)cc2)O[C@H]1c1ccccc1N=[N+]=[N-]	Human papillomavirus type 1a protein E7 (residues 44-93)	-0.0639
COC(=O)[C@H]1N=C(c2ccc(OCCCO)cc2)O[C@H]1c1ccccc1CN=[N+]=[N-]	Human papillomavirus type 1a protein E7 (residues 44-93)	1.05
CCOC(=O)C1=CC[C@@H](c2ccc(N(CC)CC)cc2)N(S(=O)(=O)c2ccc(C)cc2)[C@H]1c1ccc([N+](=O)[O-])cc1	Human papillomavirus type 1a protein E7 (residues 44-93)	1.24
Cc1ccc(F)cc1S(=O)(=O)N[C@@H]1CCN(C(=O)c2ccc(OC(C)C)cc2)C1	Human papillomavirus type 1a protein E7 (residues 44-93)	0.801
COc1ccc(CCNC(=O)[C@@H]2c3ccccc3C(=O)N(Cc3ccccc3C(F)(F)F)[C@H]2c2ccc(CO)cc2)cc1	Human papillomavirus type 1a protein E7 (residues 44-93)	1.47
